# assayed-system: Melanocortin receptor 4 (Homo sapiens, UniProt P32245)
# Sequence (P32245 whole entry): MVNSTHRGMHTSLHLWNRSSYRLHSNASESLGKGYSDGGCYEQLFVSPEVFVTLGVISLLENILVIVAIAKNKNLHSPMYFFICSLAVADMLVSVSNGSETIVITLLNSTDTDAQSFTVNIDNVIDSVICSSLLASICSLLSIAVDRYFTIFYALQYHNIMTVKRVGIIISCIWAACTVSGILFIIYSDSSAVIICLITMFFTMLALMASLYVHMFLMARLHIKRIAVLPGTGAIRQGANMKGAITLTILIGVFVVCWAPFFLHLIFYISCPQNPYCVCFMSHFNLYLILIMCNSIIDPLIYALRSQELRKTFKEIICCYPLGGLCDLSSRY
# test-method-notes: Displacement of [125I]-NDP-alpha-MSH from human MC4R expressed in HEK2936E cell membrane measured after 16 to 23 hrs by 1450 microbeta trilux scintillation proximity assay
# Type: cell membranes
parameter: pKi
Notebook: values listed as pKi are -log10 of the concentration (mol/L).

Write down pKi measured for item CCCC[C@@H]1NC(=O)[C@@H]2CSC/C(=N/OCC(=O)NCCOCCOCCOCCN=[N+]=[N-])CSC[C@H](NC(=O)[C@H](CCCNC(=N)N)NC(=O)[C@H](CC(=O)O)NC(=O)[C@H](Cc3c[nH]c4ccccc34)NC(=O)[C@H](CCCNC(=N)N)NC(=O)[C@H](Cc3ccccc3)NC(=O)[C@H](Cc3cnc[nH]3)NC(=O)CNC1=O)C(=O)N[C@@H](Cc1cnc[nH]1)C(=O)N[C@@H](Cc1ccccc1)C(=O)N[C@@H](CCCNC(=N)N)C(=O)N[C@@H](Cc1c[nH]c3ccccc13)C(=O)N[C@@H](CCCNC(=N)N)C(=O)N2
7.51

* * *

# Species: Homo sapiens
# test-method-notes: Selectivity ratio of Ki for human MC4R to Ki for human MC1R
Where a SMILES comes first, the peptide text is derived from it. Bridges are numbered along the chain shown (N, C = ends). [ ]: non-standard residue; d: D form. NMeR = CN[C@@H](CCCNC(=N)N)C(=O)O
parameter: Ratio Ki

A selection of reference data follows.
# molecule, Ratio Ki
rows = [
    ("CC[C@H](C)[C@@H]1NC(=O)[C@@H]2CCCN2C(=O)[C@H](Cc2c[nH]c3ccccc23)NC(=O)[C@H](CCCNC(=N)N)N(C)C(=O)[C@H](Cc2ccccc2)NC(=O)[C@H](Cc2cnc[nH]2)NC(=O)[C@H]([C@@H](C)O)NC(=O)[C@@H](NC(C)=O)CSSC[C@@H](C(N)=O)NC1=O (Ac-CTHF[NMeR]WPIC-NH2; disulfide 1-9)", 2),
    ("CCCC[C@@H]1NC(=O)[C@@H]2CSC/C(=N/OCC(=O)NCCOCCOCCOCCN=[N+]=[N-])CSC[C@H](NC(=O)[C@H](CCCNC(=N)N)NC(=O)[C@H](CC(=O)O)NC(=O)[C@H](Cc3c[nH]c4ccccc34)NC(=O)[C@H](CCCNC(=N)N)NC(=O)[C@H](Cc3ccccc3)NC(=O)[C@H](Cc3cnc[nH]3)NC(=O)CNC1=O)C(=O)N[C@@H](Cc1cnc[nH]1)C(=O)N[C@@H](Cc1ccccc1)C(=O)N[C@@H](CCCNC(=N)N)C(=O)N[C@@H](Cc1c[nH]c3ccccc13)C(=O)N[C@@H](CCCNC(=N)N)C(=O)N2", 79),
]

Quick one: give measured Ratio Ki for CC[C@H](C)[C@@H]1NC(=O)[C@@H]2CCCN2C(=O)[C@H](Cc2c[nH]c3ccccc23)NC(=O)[C@H](CCCNC(=N)N)N(C)C(=O)[C@H](Cc2ccccc2)NC(=O)[C@H](Cc2cnc[nH]2)NC(=O)[C@H]([C@@H](C)O)NC(=O)[C@H](NC(C)=O)CCSCc2ccccc2CSCC[C@H](C(N)=O)NC1=O
17

* * *

Reported values of pKi for individual entries
# assayed-system: Melanocortin receptor 3 (Homo sapiens, UniProt P41968)
# Sequence (P41968 whole entry): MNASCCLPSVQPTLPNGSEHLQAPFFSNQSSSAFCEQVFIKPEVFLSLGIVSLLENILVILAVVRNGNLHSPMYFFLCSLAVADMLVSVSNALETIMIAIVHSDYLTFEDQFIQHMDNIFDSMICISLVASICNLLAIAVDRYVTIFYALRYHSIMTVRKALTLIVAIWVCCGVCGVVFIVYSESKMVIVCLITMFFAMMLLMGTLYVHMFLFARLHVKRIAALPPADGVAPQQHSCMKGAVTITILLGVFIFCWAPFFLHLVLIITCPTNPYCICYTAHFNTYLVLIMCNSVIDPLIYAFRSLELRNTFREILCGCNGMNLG
# test-method-notes: Displacement of [125I]-NDP-alpha-MSH from human MC3R expressed in HEK2936E cell membrane measured after 16 to 23 hrs by 1450 microbeta trilux scintillation proximity assay
# Format: cell membranes
# protocol-conditions: hek2936e
The answer should be written as a number, with no unit following it.

Some compounds with recorded pKi:
# smiles-structure, result-number
data = [
    ("CC[C@H](C)[C@@H]1NC(=O)[C@@H]2CCCN2C(=O)[C@H](Cc2c[nH]c3ccccc23)NC(=O)[C@H](CCCNC(=N)N)N(C)C(=O)[C@H](Cc2ccccc2)NC(=O)[C@H](Cc2cnc[nH]2)NC(=O)[C@H]([C@@H](C)O)NC(=O)[C@H](NC(C)=O)CCSCc2ccc(cc2)CSCC[C@H](C(N)=O)NC1=O", 4.89),
    ("CC[C@H](C)[C@@H]1NC(=O)[C@@H]2CCCN2C(=O)[C@H](Cc2c[nH]c3ccccc23)NC(=O)[C@H](CCCNC(=N)N)N(C)C(=O)[C@H](Cc2ccccc2)NC(=O)[C@H](Cc2cnc[nH]2)NC(=O)[C@H]([C@@H](C)O)NC(=O)[C@H](NC(C)=O)CCSCc2ccccc2CSCC[C@H](C(N)=O)NC1=O", 4.88),
    ("CC[C@H](C)[C@@H]1NC(=O)[C@@H]2CCCN2C(=O)[C@H](Cc2c[nH]c3ccccc23)NC(=O)[C@H](CCCNC(=N)N)N(C)C(=O)[C@H](Cc2ccccc2)NC(=O)[C@H](Cc2cnc[nH]2)NC(=O)[C@H]([C@@H](C)O)NC(=O)[C@H](NC(C)=O)CCSSCC[C@H](C(N)=O)NC1=O", 5.2),
]

Lab note: next compound to report on.
Quick one: give measured pKi for CC[C@H](C)[C@@H]1NC(=O)[C@@H]2CCCN2C(=O)[C@H](Cc2c[nH]c3ccccc23)NC(=O)[C@H](CCCNC(=N)N)N(C)C(=O)[C@H](Cc2ccccc2)NC(=O)[C@H](Cc2cnc[nH]2)NC(=O)[C@H]([C@@H](C)O)NC(=O)[C@H](NC(C)=O)CCSCc2cccc(c2)CSCC[C@H](C(N)=O)NC1=O
5.08

* * *

List of pKi tested on Melanocortin receptor 3 (Homo sapiens).
*1 amine or outer side, *2 acyl side, *3 side chain or, on linkers, in order; H or OH if unused. Where a SMILES comes first, the peptide text is derived from it. Bridges are numbered along the chain shown (N, C = ends). [ ]: non-standard residue; d: D form. pXylylene = c1cc(C[*:2])ccc1C[*:1]; CH2COCH2 = O=C(C[*:1])C[*:2]; X1 = n1nc([*:2])nnc1[*:1]; Nle = CCCC[C@H](N)C(=O)O
Bear in mind: pKi is minus log10 of a mol/L concentration; give just that figure.

# compound, assayed-system, parameter, result-number
measured = [
    ("CCCC[C@@H]1NC(=O)[C@@H]2CSCc3ccc(cc3)CSC[C@H](NC(=O)[C@H](CCCNC(=N)N)NC(=O)[C@H](CC(=O)O)NC(=O)[C@H](Cc3c[nH]c4ccccc34)NC(=O)[C@H](CCCNC(=N)N)NC(=O)[C@H](Cc3ccccc3)NC(=O)[C@H](Cc3cnc[nH]3)NC(=O)CNC1=O)C(=O)N[C@@H](Cc1cnc[nH]1)C(=O)N[C@@H](Cc1ccccc1)C(=O)N[C@@H](CCCNC(=N)N)C(=O)N[C@@H](Cc1c[nH]c3ccccc13)C(=O)N[C@@H](CCCNC(=N)N)C(=O)N2 (cyclo(CHFRWRC[Nle]GHFRWDR); linker 1-7 via pXylylene)", "Melanocortin receptor 3 (Homo sapiens)", "pKi", 7.86),
    ("CCCC[C@@H]1NC(=O)[C@@H]2CSc3nnc(nn3)SC[C@H](NC(=O)[C@H](CCCNC(=N)N)NC(=O)[C@H](CC(=O)O)NC(=O)[C@H](Cc3c[nH]c4ccccc34)NC(=O)[C@H](CCCNC(=N)N)NC(=O)[C@H](Cc3ccccc3)NC(=O)[C@H](Cc3cnc[nH]3)NC(=O)CNC1=O)C(=O)N[C@@H](Cc1cnc[nH]1)C(=O)N[C@@H](Cc1ccccc1)C(=O)N[C@@H](CCCNC(=N)N)C(=O)N[C@@H](Cc1c[nH]c3ccccc13)C(=O)N[C@@H](CCCNC(=N)N)C(=O)N2 (cyclo(CHFRWRC[Nle]GHFRWDR); linker 1-7 via X1)", "Melanocortin receptor 3 (Homo sapiens)", "pKi", 7.96),
    ("CCCC[C@@H]1NC(=O)[C@@H]2CSC/C(=N/OCC(=O)NCCOCCOCCOCCN=[N+]=[N-])CSC[C@H](NC(=O)[C@H](CCCNC(=N)N)NC(=O)[C@H](CC(=O)O)NC(=O)[C@H](Cc3c[nH]c4ccccc34)NC(=O)[C@H](CCCNC(=N)N)NC(=O)[C@H](Cc3ccccc3)NC(=O)[C@H](Cc3cnc[nH]3)NC(=O)CNC1=O)C(=O)N[C@@H](Cc1cnc[nH]1)C(=O)N[C@@H](Cc1ccccc1)C(=O)N[C@@H](CCCNC(=N)N)C(=O)N[C@@H](Cc1c[nH]c3ccccc13)C(=O)N[C@@H](CCCNC(=N)N)C(=O)N2", "Melanocortin receptor 3 (Homo sapiens)", "pKi", 8.26),
]

Next:
Supply pKi value. Item: CCCC[C@@H]1NC(=O)[C@@H]2CSCC(=O)CSC[C@H](NC(=O)[C@H](CCCNC(=N)N)NC(=O)[C@H](CC(=O)O)NC(=O)[C@H](Cc3c[nH]c4ccccc34)NC(=O)[C@H](CCCNC(=N)N)NC(=O)[C@H](Cc3ccccc3)NC(=O)[C@H](Cc3cnc[nH]3)NC(=O)CNC1=O)C(=O)N[C@@H](Cc1cnc[nH]1)C(=O)N[C@@H](Cc1ccccc1)C(=O)N[C@@H](CCCNC(=N)N)C(=O)N[C@@H](Cc1c[nH]c3ccccc13)C(=O)N[C@@H](CCCNC(=N)N)C(=O)N2 (cyclo(CHFRWRC[Nle]GHFRWDR); linker 1-7 via CH2COCH2)
7.63

meta.source: ChEMBL document CHEMBL5104192
